Target: recombinant human PolRMT (Homo sapiens, UniProt O00411)
Construct: purchased Enzymax (Lexington, KY)
Sequence (O00411 42-1230): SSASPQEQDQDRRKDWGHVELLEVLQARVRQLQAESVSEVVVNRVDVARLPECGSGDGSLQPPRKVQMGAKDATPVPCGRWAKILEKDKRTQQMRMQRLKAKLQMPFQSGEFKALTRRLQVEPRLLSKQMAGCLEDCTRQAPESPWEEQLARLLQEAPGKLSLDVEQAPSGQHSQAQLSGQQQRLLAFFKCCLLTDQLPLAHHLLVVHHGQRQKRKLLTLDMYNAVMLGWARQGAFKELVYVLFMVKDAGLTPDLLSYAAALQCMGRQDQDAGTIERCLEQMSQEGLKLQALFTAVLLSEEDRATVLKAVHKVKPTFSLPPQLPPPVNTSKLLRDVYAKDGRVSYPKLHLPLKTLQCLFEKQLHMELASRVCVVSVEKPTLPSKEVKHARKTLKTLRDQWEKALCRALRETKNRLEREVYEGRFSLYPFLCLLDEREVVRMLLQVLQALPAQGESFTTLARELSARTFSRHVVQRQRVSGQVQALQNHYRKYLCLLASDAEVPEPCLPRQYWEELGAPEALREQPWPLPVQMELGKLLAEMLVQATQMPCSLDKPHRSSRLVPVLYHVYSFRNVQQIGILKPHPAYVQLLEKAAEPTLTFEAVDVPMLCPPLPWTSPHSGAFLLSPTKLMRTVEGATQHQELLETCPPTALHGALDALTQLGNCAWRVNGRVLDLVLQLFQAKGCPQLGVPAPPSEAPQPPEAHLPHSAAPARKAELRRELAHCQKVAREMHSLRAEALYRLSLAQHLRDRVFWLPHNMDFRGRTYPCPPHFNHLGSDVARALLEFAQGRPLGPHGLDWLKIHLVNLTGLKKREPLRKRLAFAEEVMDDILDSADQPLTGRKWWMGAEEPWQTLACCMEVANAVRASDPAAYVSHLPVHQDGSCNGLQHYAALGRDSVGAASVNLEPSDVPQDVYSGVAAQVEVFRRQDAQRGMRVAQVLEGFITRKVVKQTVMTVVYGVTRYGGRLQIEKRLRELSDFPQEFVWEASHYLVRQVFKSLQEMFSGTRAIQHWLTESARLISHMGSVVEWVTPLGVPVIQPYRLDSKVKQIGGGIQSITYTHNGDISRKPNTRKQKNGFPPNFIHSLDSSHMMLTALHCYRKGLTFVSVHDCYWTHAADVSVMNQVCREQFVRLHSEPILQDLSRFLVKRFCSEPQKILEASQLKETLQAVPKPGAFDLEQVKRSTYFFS
Assay: Single-nucleotide incorporation by PolRMT
Assay type: biochemical
Conditions: triphosphate form, fixed saturating concentration 500 μM, rate relative to corresponding natural rNTP
Method: Activated fish sperm DNA was purchased from USB/Affymetrix (Santa Clara, CA) and used as a template for the DNA polymerases alpha, beta, and gamma. […] Human DNA polymerase alpha, isolated from HeLa cell extracts, was from CHIMERx (Madison, WI). […] After incubation at 30°C for 20 min to 1 h, the reactions were terminated by pipetting the mixtures onto DEAE-cellulose discs (DE81; Whatman), and the products analyzed as described previously ([20], [21]). […]
Can you tell me Substrate incorporation (% of NTP [mean ± SD]) of PolRMT for the items I'm about to list?

Form: molecule = CC(C)C(=O)OC[C@H]1O[C@@H](n2ccc(N)nc2=O)[C@](C)(F)[C@@H]1OC(=O)C(C)C ; Substrate incorporation (% of NTP [mean ± SD]) of PolRMT = < 1 % of NTP

Form: molecule = CCOc1nc(N)nc2c1ncn2[C@@H]1O[C@@H]2COP(=O)(OC(C)C)O[C@H]2[C@@]1(C)F (stereo partly drawn) ; Substrate incorporation (% of NTP [mean ± SD]) of PolRMT = 1.6 ± 0.2 % of NTP

Form: molecule = CC(C)OC(=O)[C@H](C)N[P@](=O)(OC[C@H]1O[C@@H](n2ccc(=O)[nH]c2=O)[C@](C)(F)[C@@H]1O)Oc1ccccc1 ; Substrate incorporation (% of NTP [mean ± SD]) of PolRMT = 0.45 ± 0.40 % of NTP

Form: molecule = C[C@@]1(F)[C@H](O)[C@@H](CO)O[C@H]1n1ccc(N)nc1=O ; Substrate incorporation (% of NTP [mean ± SD]) of PolRMT = 0.81 ± 0.13 % of NTP

Form: molecule = C[C@@]1(O)[C@H](O)[C@@H](COP(=O)(O)OP(=O)(O)OP(=O)(O)O)O[C@H]1n1cnc2c(=O)[nH]c(N)nc21 ; Substrate incorporation (% of NTP [mean ± SD]) of PolRMT = 92 ± 33 % of NTP

Recorded values, source paper PMC4750701.
